Tgt: HCV polymerase (NS5B570n-Con1) (Hepatitis C virus genotype 1b, UniProt Q9WMX2)
Construct: contains a 21 amino acid deletion at the C-terminus relative to the full-length HCV polymerase; 6-histidine (N)
Experimental Details: HCV NS5B RNA polymerase activity assay (incorporation of radiolabeled nucleotide into RNA)
pIC50: −log10 of the molar value.
// reported pIC50 per item
Reported Endpoint: pIC50

# Line Notation, Reported Endpoint, Readout Number
measured = [
    ("CC1(C)COc2c(-c3ccc4cc(NS(C)(=O)=O)ccc4c3)cc(-n3ccc(=O)[nH]c3=O)cc21", "pIC50", 9.05),
    ("COc1c(-c2ccc3cc(NS(C)(=O)=O)ccc3c2)cc(N2CCC(=O)NC2=O)c2c1C(C)(C)CO2", "pIC50", 8.33),
    ("COc1c(-c2ccc3cc(NS(C)(=O)=O)ccc3c2)cc(-n2ccc(=O)[nH]c2=O)c2c1C(C)(C)CO2", "pIC50", 9.22),
    ("CC1(C)COc2c(-n3ccc(=O)[nH]c3=O)cc(-c3ccc4cc(NS(C)(=O)=O)ccc4c3)cc21", "pIC50", 9.30),
]
